- measurementDescription: passive permeability, PAMPA, ADME assay (AID 1508612)
- measurementParameters: pH 7.4, 30.0 min, 50.0 µM
measureName: Papp

Check out these entries, answers already filled in.
mol	result
Cc1cnc(CNc2nc(-c3ccccc3Cl)nc3ccccc23)cn1	> 10000 nm/s
CC[C@@H](CO)NC(=O)[C@@H]1C=C2c3cccc4c3c(cn4C)C[C@H]2N(C)C1	3960 nm/s
O=C(O)c1ccnc2cc(-c3nc4ccccc4n3CCN3CCCCC3)sc12	40 nm/s

Each compound below has a reported value. Please supply its Papp.
1. Fc1ccc(-c2ccc(Nc3nc(-c4ccncc4)nc4ccccc34)cc2F)cc1
2. O=C1Nc2c(Cl)cccc2/C1=C\c1cc(Cl)c(O)c(Cl)c1
3. Cc1cc2ccccc2n1CC(=O)NC1CCCCC1

output:
["936 nm/s", "588 nm/s", "6340 nm/s"]

Each compound below has a reported value. Please supply its Papp.
1. Cn1cc(S(=O)(=O)N2CCCCCC2)cc1C(=O)Nc1ccc(Cl)c(C(F)(F)F)c1
2. Cc1ccnc(NC(=S)N2CCN(c3ccc(Cl)cc3Cl)CC2)c1
3. C[C@]12CC[C@@H]3[C@H](CCC4=CC(=O)CC[C@]43C)[C@]1(O)CC[C@@]2(O)C(=O)CO
4. Cc1ccc(-c2cc(C(=O)Nc3ccc(-c4noc(=O)[nH]4)cc3)c3ccccc3n2)cc1C

output:
1. 3050 nm/s
2. 8680 nm/s
3. 308 nm/s
4. 30 nm/s

---

- measurementDescription: passive permeability, PAMPA, ADME assay (AID 1508612)
- measurementParameters: pH 7.4, 30.0 min, 50.0 µM
Note that class boundaries on Papp are lo (below 20 ×10⁻⁶ cm/s), mid (20 ×10⁻⁶ cm/s to below 500 ×10⁻⁶ cm/s), hi (500 ×10⁻⁶ cm/s or more)

Solved cases (5 shown):
compound	labelClass
CC[C@H](NC(=O)[C@H](C)NC)C(=O)N1C[C@@H](O)C[C@H]1Cc1c(-c2[nH]c3cc(F)ccc3c2C[C@H]2C[C@H](O)CN2C(=O)[C@H](CC)NC(=O)[C@H](C)NC)[nH]c2cc(F)ccc12	lo
COc1cccc(C(=O)Nc2ccc3c(N4CCOCC4)ncnc3c2)c1	mid
Cc1cccc(-n2cnc3cc(C(=O)N4CCCCCC4)ccc32)c1	hi
Cc1ccc2oc(NC3=NC4(CCCC4)C4=C(CCCC4=O)N3)nc2c1	hi
COc1cc(/C=C2\C(=O)Nc3ccccc32)ccc1O	hi

input: # bin lookup: classify Cc1ccc(S(=O)(=O)Nc2cnccc2C(=O)Nc2nc(-c3nc4ccccc4s3)cs2)cc1 by its Papp
output: hi

input: What do you have for COC(=O)c1nc(-c2cccc3ccccc23)oc1OC ?
output: hi

input: What do you have for CN(C(=O)CSc1nc2ccc(NC(=O)c3ccc(F)cc3)cc2s1)c1ccccc1 ?
output: hi

input: What do you have for FC(F)(F)c1cccc(Sc2nc(-c3ccccc3)nnc2C(F)(F)F)c1 ?
output: lo

input: What do you have for COc1cc(Cl)cn2c(-c3cccc(NC4CNC4)n3)cnc12 ?
output: lo

input: What do you have for O=C(c1nc(-c2cccnc2)c2ccccn12)N1CCN(c2ncccn2)CC1 ?
output: hi

---

Could you please report measured Papp for the items listed next?
- measurementDescription: passive permeability, PAMPA, ADME assay (AID 1508612)
- measurementParameters: pH 7.4, 30.0 min, 50.0 µM

Check out these entries, answers already filled in.
compound	Papp
CC(=O)c1ccc(N2CCN(C(=O)c3ccc4c(c3)CC(=O)N4)CC2)cc1	40.5 ×10⁻⁶ cm/s
CC(=O)c1c(C)[nH]c(C(=O)Nc2cccc([S+](=O)([O-])Nc3cccnc3)c2)c1C	16.5 ×10⁻⁶ cm/s
Cc1ccc(S(=O)(=O)Nc2cnccc2C(=O)Nc2nc(-c3cccc(C)c3)cs2)cc1	729 ×10⁻⁶ cm/s
COc1cc(C(=O)NC2CCCc3c2[nH]c2ccccc32)cc(OC)c1OC (stereo not given)	189 ×10⁻⁶ cm/s

input: I have this compound here, CCN(CC)CCOc1ccc2c(=O)c3ccc(Cl)cc3n(CCN(CC)CC)c2c1 , and I need its recorded Papp.
output: > 1000 ×10⁻⁶ cm/s

---

- measurementDescription: passive permeability, PAMPA, ADME assay (AID 1508612)
- measurementParameters: pH 7.4, 30.0 min, 50.0 µM
Decision: Papp compared against 300 ×10⁻⁶ cm/s; not below it gives fulfilled, below it gives not fulfilled.

input: Evaluate O=c1c2c([nH]c3ccc(Br)cc13)CCCC2 : Papp at minimum 300 ×10⁻⁶ cm/s?
output: not fulfilled

input: What do you have for Cc1cccc(CS(=O)(=O)c2ncc(Cl)c(C(=O)Nc3nc4ccc(F)cc4s3)n2)c1 ?
output: not fulfilled

input: What do you have for COc1cccc(CNc2ccc(S(=O)(=O)Nc3ccccc3)cc2)c1O ?
output: fulfilled

input: What do you have for Cc1ccc(S(=O)(=O)n2cc(C(=O)Nc3nc(-c4ccccc4)cs3)c3ccccc32)cc1 ?
output: not fulfilled

input: What do you have for Cc1noc(C)c1C(=O)N1CCC2(CC1)CCN(C(c1ccccc1)c1ccccc1)CC2 ?
output: fulfilled

input: What do you have for COc1cc2c(C(=O)N3CCN(c4cccc(C(F)(F)F)c4)CC3)cn(CC(C)C)c(=O)c2cc1OC ?
output: fulfilled

---

- measurementDescription: passive permeability, PAMPA, ADME assay (AID 1508612)
- measurementParameters: pH 7.4, 30.0 min, 50.0 µM
Assign labels as follows, please: TRUE for Papp below 400 ×10⁻⁶ cm/s; FALSE for Papp equal to or exceeding 400 ×10⁻⁶ cm/s.

Solved cases (4 shown):
compound	labelClass
Cc1ccc(-n2nc3c(=O)n(CCCC(=O)NCc4ccccc4F)nc(C)c3c2C)cc1	FALSE
Cc1ccc2oc3c(c(=O)c2c1)C(c1ccc(O)cc1)N(CCCN(C)C)C3=O (stereo unspecified)	TRUE
CNc1oc(-c2cccc3ccccc23)nc1C#N	FALSE
NC(=O)C1CCN(c2nc(-c3ccc(Cl)cc3)cs2)CC1	TRUE

input: Item Cc1nnc(-c2ccccc2C(C)C)nc1NCc1ccc(-c2cccnc2)cc1 : Papp beneath 400 ×10⁻⁶ cm/s, strictly?
output: FALSE

input: What do you have for COc1ccccc1N1CCN(c2ccc3cc(S(=O)(=O)N4CCCCC4)ccc3n2)CC1 ?
output: FALSE

input: What do you have for CCN1C(=O)c2ccccc2S(=O)c2ccc(NC(=O)Cc3ccc(OC)cc3)cc21 (stereo unspecified) ?
output: FALSE

input: What do you have for CCOc1ccc(CCNC(=O)c2cc3ccccc3n2Cc2ccccn2)cc1OCC ?
output: FALSE

input: What do you have for CN(C)c1ccc(-c2csc(N3CCC(C(N)=O)CC3)n2)cc1 ?
output: TRUE

input: What do you have for Cc1cc(C)cc(C(=O)Nc2ccc3c(N4CCCC4)ncnc3c2)c1 ?
output: FALSE

input: What do you have for Cc1cc(-c2nnc3n2CCCCC3)c(C)n1-c1cccc(Cl)c1 ?
output: FALSE

input: What do you have for O=C(Nc1nc(-c2ccccc2)cs1)c1ccccc1-n1cnnn1 ?
output: TRUE

input: What do you have for COc1cccc(CNc2ccc(S(=O)(=O)Nc3cccs3)cc2)c1O ?
output: FALSE

input: What do you have for C[C@]1(CO)CN(c2cc(C(=O)Nc3ccc4c(c3)-c3c(c(C(N)=O)nn3-c3ccc(F)cc3)CC4)c(Cl)cn2)C[C@@]1(C)CO ?
output: TRUE

input: What do you have for COc1cccc(-c2nc(-c3c(C)noc3C)cc3[nH]c(C)cc23)c1OC ?
output: FALSE

input: What do you have for O=C(NCCc1nc2ccccc2n1CCO)C1CCCCC1 ?
output: TRUE

input: What do you have for C[C@@H]1Cc2c([nH]c3cc(Cl)c(F)cc23)[C@]2(N1)C(=O)Nc1ccc(Cl)cc12 ?
output: FALSE

input: What do you have for c1ccc(-c2cc(Nc3nc(-c4ccncc4)nc4ccccc34)n[nH]2)cc1 ?
output: TRUE

input: What do you have for c1ccc2c(Nc3ccc4nc[nH]c4c3)nc(-c3ccncc3)nc2c1 ?
output: TRUE

input: What do you have for COc1ccc(OC)c(-c2nnc3n2N=C(c2c(OC)cccc2OC)CS3)c1 ?
output: FALSE

input: What do you have for O=C(NC1CCCc2c1[nH]c1ccccc21)c1ccccc1 (stereo unspecified) ?
output: TRUE

input: What do you have for COc1ccc(NC(=O)c2ccccc2)cc1S(=O)(=O)Nc1ccc(Br)cc1 ?
output: FALSE

---

- measurementDescription: passive permeability, PAMPA, ADME assay (AID 1508612)
- measurementParameters: pH 7.4, 30.0 min, 50.0 µM
Assign labels as follows, please: Yes for Papp below 500 ×10⁻⁶ cm/s; No for Papp equal to or exceeding 500 ×10⁻⁶ cm/s.

Solved cases (5 shown):
compound	labelClass
O=C(Nc1ccc(-c2ccccc2)cc1)[C@H](Cc1ccc(O[S+](=O)([O-])c2cccc3cnccc23)cc1)N[S+](=O)([O-])c1cccc2cnccc12	Yes
Cc1cc(Nc2nc(-c3ccncc3)nc3ccccc23)n[nH]1	No
CCCCn1cc2c(c1-c1ccc(Br)cc1)c(=O)n(C)c(=O)n2C	No
Cc1ccc2c(c1)[nH]c1c(N3CCN(Cc4ccccc4)CC3)ncnc12	No
CC(=O)N1CCN(c2ccc(OCc3nn(C)c(C)c3-c3cccc4c(CCCOc5cccc6ccccc56)c(C(=O)O)n(Cc5cccnc5)c34)cc2)CC1	Yes

input: Item COc1cccc(CNc2ccc(S(=O)(=O)Nc3nccs3)cc2)c1O : Papp beneath 500 ×10⁻⁶ cm/s, strictly?
output: Yes

input: What do you have for CCOc1ccc(OCC)c(NC(=O)C(NS(=O)(=O)c2ccc(Br)s2)c2ccccc2)c1 (stereo not drawn) ?
output: Yes

input: What do you have for O=S(=O)(Nc1cccc(C(F)(F)F)c1)c1ccc(NS(=O)(=O)c2ccc3c(c2)OCCO3)cc1 ?
output: No

input: What do you have for CCOc1ccc(C2C(C(=O)Nc3ccccc3OC)=C(C)Nc3c(C(=O)Nc4cccc(C)c4)cnn32)cc1 (stereo not drawn) ?
output: No

input: What do you have for COc1cc2ncnc(Nc3ccc(Oc4ccccc4)cc3)c2cc1OC ?
output: No
